System: Plasmodium berghei
Assay: Screen against P. berghei liver stage (PbLuc), transformed with Luciferase, at 10uM
Assay type: functional, HepG2
Details: tested at 10 uM
Out of some 69,000 compounds screened, about 8,600 (12%) showed an effect of 50% or more. This excerpt belongs to a sample that is enriched for strong results.
INHIBITION by entry:
Express it in %; write the number only.

The following compounds have reported results that may help.
>  <compound>
Cc1cc2ccncc2n1CC1(O)CCN(C(=O)c2ccncc2)CC1

>  <measurement.target>
Plasmodium berghei

>  <INHIBITION / %>
7.19

$$$$
>  <compound>
CC(C(=O)N1CCCN(Cc2cnn(C(C)C)c2)CC1)n1ccnc1 (configuration not stated)

>  <measurement.target>
Plasmodium berghei

>  <INHIBITION / %>
48.1

$$$$
>  <compound>
CN1CCCCC1CC(=O)Nc1ccc2ncn(C)c2c1 (configuration not stated)

>  <measurement.target>
Plasmodium berghei

>  <INHIBITION / %>
9.41

$$$$
>  <compound>
CC(NC(=O)c1cccs1)(C(N)=O)c1cccc(C(F)(F)F)c1 (configuration not stated)

>  <measurement.target>
Plasmodium berghei

>  <INHIBITION / %>
62

$$$$

Q) State INHIBITION on Plasmodium berghei. Entry: O=C(NCc1ccccc1CN1CCC(O)CC1)Nc1ccncc1
A) -8.19

Q) Quote Plasmodium berghei INHIBITION for entry CCc1ccc(-c2cn3c(C(=O)N[C@H](C(N)=O)[C@@H](C)O)csc3n2)cc1 .
A) -171

Q) Given CN(C)CC(=O)N1CC(c2nn(C)c3nccnc23)C1 , report its INHIBITION on Plasmodium berghei.
A) -0.902

Q) Quote INHIBITION with test system Plasmodium berghei for Cc1ccc(C)c(Oc2cc(-n3nc(C)c(C#N)c3N)nc(C)n2)c1
A) 55.6

Q) # assay system Plasmodium berghei: give INHIBITION of Cn1ccc(C(=O)NC2CCC23CCN(Cc2cccnc2)CC3)c1 (configuration not stated)
A) 23.5

Q) // output INHIBITION; input O=C(NCc1ccccc1CN1CCC(O)CC1)Nc1ccccn1 ; system Plasmodium berghei
A) 52

Q) Enter recorded INHIBITION with Plasmodium berghei for COc1ccc(OC)c(CNc2nnc(C(C)(C)C)o2)c1 here.
A) -10.9

----------
Each entry below lists one item and its recorded INHIBITION value.
Test system: Plasmodium berghei
Test: Screen against P. berghei liver stage (PbLuc), transformed with Luciferase, at 10uM
Assay type: functional, HepG2
Settings: tested at 10 uM
Out of some 69,000 compounds screened, about 8,600 (12%) showed an effect of 50% or more. Many of the other results were omitted from the sample, so strong results are more common in it than they were.
Quick note: give the figure in %, leave out the unit.

>  <compound>
OCCNC1CSCCc2ccccc21 (configuration not stated)

>  <measurement.target>
Plasmodium berghei

>  <measured>
-56.6

$$$$
>  <compound>
Cc1ccc(CN2CCc3ncnc(C4CCOC4)c3CC2)s1 (configuration not stated)

>  <measurement.target>
Plasmodium berghei

>  <measured>
-31.6

$$$$
>  <compound>
CCS(=O)(=O)NCCN(CCO)C1CCc2ccccc21 (configuration not stated)

>  <measurement.target>
Plasmodium berghei

>  <measured>
29.4

$$$$

Let us move to another entry and its INHIBITION.
Q) Retrieve INHIBITION on Plasmodium berghei; query Cc1ccc(OCCN2CCCC(c3cc(C(N)=O)[nH]n3)C2)cc1 (configuration not stated)
A) 15.3

----------
Tested on: Plasmodium berghei
Test: Screen against P. berghei liver stage (PbLuc), transformed with Luciferase, at 10uM
Assay type: functional, HepG2
Conditions: tested at 10 uM
Out of some 69,000 compounds screened, about 8,600 (12%) showed an effect of 50% or more. The list comes from a sample in which strong results are over-represented; it also holds close analogues and randomly drawn compounds.
quantity.measured: INHIBITION
Note: a bare number is incomplete; add the unit.

Record excerpt, results attached:
>  <compound>
CS(=O)(=O)CCn1ccc(NC(=O)c2c(F)cccc2F)n1

>  <measured>
46.1%

$$$$
>  <compound>
Cc1cccc(C)c1OC1CCN(Cc2ccn(C)c(=O)c2)CC1

>  <measured>
58%

$$$$
>  <compound>
O=C(c1ccccc1F)N1CC[C@@H]2CN(c3ncccn3)CCO[C@@H]2C1

>  <measured>
69.5%

$$$$
>  <compound>
CC[S+](CC)[c-]1c(=O)[nH]c(=O)n(CCc2ccc(F)cc2)c1=O

>  <measured>
-17.6%

$$$$
>  <compound>
COc1ccc(OC)c(-c2nc(CN(C)Cc3noc(C)n3)c(C)o2)c1

>  <measured>
31.1%

$$$$
>  <compound>
Cc1cnc(C(=O)N2CC[C@@H]3CN(c4ncccn4)CCO[C@@H]3C2)cn1

>  <measured>
56.7%

$$$$
>  <compound>
Cc1ccccc1C(=O)N1CC[C@@H]2CN(c3ncccn3)CCO[C@@H]2C1

>  <measured>
47.4%

$$$$
>  <compound>
NC(=O)C(CNC(=O)CCc1ccsc1)Cc1ccc(F)cc1 (stereo unspecified)

>  <measured>
13.1%

$$$$
>  <compound>
CN(C)C(=O)c1cccnc1N1CCOC(c2ccc(Cl)cc2)C1 (stereo unspecified)

>  <measured>
55%

$$$$
>  <compound>
Cn1ccc(CN2CCC(Oc3ccccc3)CC2)cc1=O

>  <measured>
25.6%

$$$$

Proceeding to the next compound to report its INHIBITION.
Q) For the compound Cn1ccc(CN2CCC(COC3CCCC3)CC2)cc1=O , give its reported INHIBITION.
A) 58%

----------
System: Plasmodium berghei
Assay: Screen against P. berghei liver stage (PbLuc), transformed with Luciferase, at 10uM
Type: functional, HepG2
Details: tested at 10 uM
Out of some 69,000 compounds screened, about 8,600 (12%) showed an effect of 50% or more. What follows is part of a selection rich in strong results, with near analogues and random picks from the rest.
Label fulfilled when INHIBITION is strictly below 10%; at or above that, label not fulfilled.

Worked examples, 8 molecules total:
>  <molecule>
CC1=N[C@@]2(CC[C@@H]3CN(Cc4ccccc4)C[C@@H]32)C(=O)N1CC1CC1

>  <measurement.target>
Plasmodium berghei

>  <group.label>
fulfilled

$$$$
>  <molecule>
CC(=O)N1CCCC2(C1)CN(C(=O)Cc1ccccc1)CCO2 (stereo unspecified)

>  <measurement.target>
Plasmodium berghei

>  <group.label>
not fulfilled

$$$$
>  <molecule>
Cc1cnc(C(=O)N2CCC3(CC2)CN(c2ccccn2)CCO3)cn1

>  <measurement.target>
Plasmodium berghei

>  <group.label>
not fulfilled

$$$$
>  <molecule>
CS(=O)(=O)NCc1cnc2n1CCN(Cc1ccccn1)CC2

>  <measurement.target>
Plasmodium berghei

>  <group.label>
not fulfilled

$$$$
>  <molecule>
CCS(=O)(=O)N1CCCC2(COCCN(c3nnc(C)o3)C2)C1 (stereo unspecified)

>  <measurement.target>
Plasmodium berghei

>  <group.label>
not fulfilled

$$$$
>  <molecule>
O=C(Cc1ccccc1)N1CCC2(CC1)CN(c1ncccn1)CCO2

>  <measurement.target>
Plasmodium berghei

>  <group.label>
not fulfilled

$$$$
>  <molecule>
CCOC1CC2(CCN(C(=O)Cc3ccccn3)CC2)C1

>  <measurement.target>
Plasmodium berghei

>  <group.label>
not fulfilled

$$$$
>  <molecule>
CC(C)C1CN(C(=O)c2cn3cc(Cl)cnc3n2)CCCN1CC1CC1 (stereo unspecified)

>  <measurement.target>
Plasmodium berghei

>  <group.label>
not fulfilled

$$$$

Now look at this entry.
Q) Input O=C(CC1CCC2(CC1)CCN(Cc1ccncc1)CC2)N1CCCC1 ; condition: INHIBITION strictly below 10%. Does it hold?
A) fulfilled

----------
Reported INHIBITION values follow for various compounds
System: Plasmodium berghei
Experiment: Screen against P. berghei liver stage (PbLuc), transformed with Luciferase, at 10uM
Assay type: functional, HepG2
Conditions: tested at 10 uM
Screen size: about 69,000 compounds; about 8,600 (12%) showed an effect of 50% or more. This excerpt belongs to a sample that is enriched for strong results.
Use % as the unit, but write only the number.

Here are 5 compounds together with their reported answers.
>  <compound>
Cc1nc(C)n(CC2CN(CC(=O)Nc3nccs3)CCO2)n1 (stereo unspecified)

>  <unit.label>
%

>  <INHIBITION>
30.1

$$$$
>  <compound>
Cc1nc(C)n(CC2CCCN(CC(=O)Nc3cccnc3)C2)n1 (stereo unspecified)

>  <unit.label>
%

>  <INHIBITION>
57.2

$$$$
>  <compound>
Cc1nc(C)n(CC2CCCN(CC(=O)Nc3ccncc3)C2)n1 (stereo unspecified)

>  <unit.label>
%

>  <INHIBITION>
-0.15

$$$$
>  <compound>
Cc1cnn(CC2CN(CC(=O)Nc3cccnc3)CCO2)c1 (stereo unspecified)

>  <unit.label>
%

>  <INHIBITION>
67.5

$$$$
>  <compound>
Cc1nc(C)n(CC2CN(CC(=O)Nc3cccnc3)CCO2)n1 (stereo unspecified)

>  <unit.label>
%

>  <INHIBITION>
-13.2

$$$$

Q) Identify measured INHIBITION associated with Cc1nc(C)n(CC2CN(CC(=O)Nc3ccncc3)CCO2)n1 (stereo unspecified)
A) 64.1
